This collection of values is drawn from a melting point compilation (Tetko et al.; mined from patent text by program, amines drawn as free bases though some values may be those of a salt).

observable: melting point

CCn1c(=O)c2nc(-c3ccc(/C=C/C(=O)O)cc3)[nH]c2n(C)c1=O | > 300 °C
CCOC(=O)c1cc2c3n(ccc-2n1)CC=N3 | 154 to 156 °C
O=C1C(=O)c2ccc(-c3ccccc3)cc2C2=C1SCC1(CCN(CC(O)COc3ccc(Cl)cc3)CC1)O2 (stereo not given) | 93 to 98 °C
CC(C)(C)c1nn(-c2c(Cl)cc(C(F)(F)F)cc2Cl)c(Cl)c1-c1nc(C#N)c(C#N)[nH]1 | 118 to 120 °C

Write down melting point measured for item CCCCCCCCN(O)C(=O)N(C)C
29 to 30 °C
